Origin of measurements: patent US20060183921A1

Parameter: Change in cAMP Content from Control (Mean ± SEM). Scope: all listed entries.
- System tested: human recombinant A1-adenosine receptors (Homo sapiens, UniProt P30542)
- Construct: expressed in transfected cells; host or cells: CHO (Chinese hamster ovary) cells, CHO:huA1, under G-418 selection
- Test method notes: Measurement of cAMP enhancement in CHO cells (allosteric enhancement, cAMP content by radioimmunoassay)
- Format: cell-based
- Particulars: 10 μM test compound; CHO:huA1 cells; forskolin 1 μM, rolipram 20 μM, CPA 0.01 nM; 6 min at 36° C.; control 100%
Give the number; % is assumed, so skip it.

These solved cases illustrate the format of a correct answer.
# Compound, System tested, Test result
measured = [
    ("Nc1scc2c1C(O)c1ccc(Cl)cc1-2 (stereo not drawn) [Example 22]", "human recombinant A1-adenosine receptors (Homo sapiens, UniProt P30542)", "−17"),
    ("Nc1sc2c3c1C(=O)c1ccc(Cl)cc1C3CN(Cc1ccccc1)C2 (stereo not drawn) [Example 26]", "human recombinant A1-adenosine receptors (Homo sapiens, UniProt P30542)", 25),
]

Note: attention shifts to another entry.
Consider the compound Nc1scc2c1C(=O)c1cc(Br)ccc1-2 [Example 21] and give its recorded Change in cAMP Content from Control (Mean ± SEM).
−16

###

# Change in cAMP Content from Control (Mean ± SEM) values compiled below
- System tested: human recombinant A1-adenosine receptors (Homo sapiens)
- Construct: expressed in transfected cells; host or cells: CHO (Chinese hamster ovary) cells, CHO:huA1, under G-418 selection
- Sequence (P30542 1-326): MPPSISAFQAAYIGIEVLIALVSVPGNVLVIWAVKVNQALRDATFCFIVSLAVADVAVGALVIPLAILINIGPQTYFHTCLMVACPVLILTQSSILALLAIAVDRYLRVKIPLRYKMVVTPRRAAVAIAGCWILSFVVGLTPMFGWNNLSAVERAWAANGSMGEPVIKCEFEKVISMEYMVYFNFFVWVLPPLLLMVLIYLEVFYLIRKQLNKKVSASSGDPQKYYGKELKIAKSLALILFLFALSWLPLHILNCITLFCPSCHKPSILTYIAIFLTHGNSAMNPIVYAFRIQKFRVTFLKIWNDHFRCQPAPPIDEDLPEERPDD
- Test method notes: Measurement of cAMP enhancement in CHO cells (allosteric enhancement, cAMP content by radioimmunoassay)
- Format: cell-based
- Particulars: 10 μM test compound; CHO:huA1 cells; forskolin 1 μM, rolipram 20 μM, CPA 0.01 nM; 6 min at 36° C.; control 100%
# value in %; strip the unit string

# Molecule, Test result
rows = [
    ("Nc1scc2c1C(=O)c1ccc(Cl)c(Cl)c1-2 [Example 25]", "−75"),
    ("Nc1scc2c1C(=O)c1c(Cl)cccc1C21SCCCS1 [Example 27]", 0),
    ("Nc1ccc2c(c1)C(=O)c1c-2csc1N [Example 24]", "−23"),
    ("CC(=O)Nc1scc2c1C(=O)c1ccc(Cl)cc1-2 [Example 23]", "−42"),
]

Dear colleague, please send me the reported Change in cAMP Content from Control (Mean ± SEM) for Cc1sc(N)c(C(=O)c2cccc(C(F)(F)F)c2)c1C [PD 81,72, reference compound] when you can.
−75

###

- System tested: human recombinant A1-adenosine receptors (Homo sapiens, UniProt P30542)
- Construct: expressed in transfected cells; host or cells: CHO (Chinese hamster ovary) cells, CHO:huA1, under G-418 selection
- Sequence (P30542 1-326): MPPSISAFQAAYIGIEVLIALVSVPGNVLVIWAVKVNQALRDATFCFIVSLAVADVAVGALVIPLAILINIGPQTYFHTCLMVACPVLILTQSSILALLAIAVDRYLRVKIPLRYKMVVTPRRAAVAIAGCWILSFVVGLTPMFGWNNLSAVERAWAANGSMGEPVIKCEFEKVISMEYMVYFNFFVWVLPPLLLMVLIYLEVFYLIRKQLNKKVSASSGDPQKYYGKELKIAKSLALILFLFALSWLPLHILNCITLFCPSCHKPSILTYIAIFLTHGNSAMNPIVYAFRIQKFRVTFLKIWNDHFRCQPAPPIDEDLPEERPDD
- Test method notes: Measurement of cAMP enhancement in CHO cells (allosteric enhancement, cAMP content by radioimmunoassay)
- Assay type: cell-based
- Particulars: 1 μM test compound; CHO:huA1 cells; forskolin 1 μM, rolipram 20 μM, CPA 0.01 nM; 6 min at 36° C.; control 100%
Endpoint: Change in cAMP Content from Control (Mean ± SEM) (%)
Give the value in % but do not write % after it.

# Molecule, Test result
measured = [
    ("Nc1scc2c1C(O)c1ccc(Cl)cc1-2 (centres unmarked)", 0),
]

# return recorded Change in cAMP Content from Control (Mean ± SEM) for entry Nc1sc2c3c1C(=O)c1ccc(Cl)cc1C3CN(Cc1ccccc1)C2 (centres unmarked)
15

Specify reported Change in cAMP Content from Control (Mean ± SEM) for the molecule shown: `CC(=O)Nc1scc2c1C(=O)c1ccc(Cl)cc1-2`
−16

###

- System tested: human recombinant A1-adenosine receptors (Homo sapiens, UniProt P30542)
- Construct: expressed in transfected cells; host or cells: CHO (Chinese hamster ovary) cells, CHO:huA1, under G-418 selection
- Test method notes: Measurement of cAMP enhancement in CHO cells (allosteric enhancement, cAMP content by radioimmunoassay)
- Type: cell-based
- Particulars: 0.1 μM test compound; CHO:huA1 cells; forskolin 1 μM, rolipram 20 μM, CPA 0.01 nM; 6 min at 36° C.; control 100%
- Experimental: Chinese hamster ovary cells expressing human recombinant A1-adenosine receptors (CHO:huA1 cells) at a density of approximately 8000 fmol/mg protein were prepared as previously described (Kollias-Baker et al., (1997), J. Pharmacol. Exp. Ther. 281: 761-768) and aliquots of the cells at low passage numbers were frozen and stored in liquid nitrogen. […]
Endpoint: Change in cAMP Content from Control (Mean ± SEM) (%)
API: value field is a number in %; no unit string.

# Compound, Test result
data = [
    ("CC(=O)Nc1scc2c1C(=O)c1ccc(Cl)cc1-2", 9),
    ("Nc1scc2c1C(=O)c1ccc(Cl)c(Cl)c1-2", "−9"),
    ("Nc1scc2c1C(=O)c1c(Cl)cccc1C21SCCCS1", 8),
    ("Nc1sc2c3c1C(=O)c1ccc(Cl)cc1C3CN(Cc1ccccc1)C2 (centres unmarked)", "−1"),
    ("Cc1sc(N)c(C(=O)c2cccc(C(F)(F)F)c2)c1C [PD 81,72, reference compound]", 8),
]

Specify measured Change in cAMP Content from Control (Mean ± SEM) for Nc1scc2c1C(O)c1ccc(Cl)cc1-2 (centres unmarked) .
−1

State its Change in cAMP Content from Control (Mean ± SEM) for this compound: `Nc1scc2c1C(=O)c1cc(Br)ccc1-2`
−15

Using the record for `Nc1ccc2c(c1)C(=O)c1c-2csc1N` , state its measured Change in cAMP Content from Control (Mean ± SEM).
5

###

# Change in cAMP Content from Control (Mean ± SEM) per entry
- System tested: human recombinant A1-adenosine receptors (Homo sapiens)
- Construct: expressed in transfected cells; host or cells: CHO (Chinese hamster ovary) cells, CHO:huA1, under G-418 selection
- Test method notes: Measurement of cAMP enhancement in CHO cells (allosteric enhancement, cAMP content by radioimmunoassay)
- Assay type: cell-based
- Particulars: 0.01 μM test compound; CHO:huA1 cells; forskolin 1 μM, rolipram 20 μM, CPA 0.01 nM; 6 min at 36° C.; control 100%
Write the number in % without appending the unit.

For the compound `Nc1ccc2c(c1)C(=O)c1c-2csc1N` , give its measured Change in cAMP Content from Control (Mean ± SEM) value.
5

Identify Change in cAMP Content from Control (Mean ± SEM) associated with the compound `Nc1scc2c1C(=O)c1ccc(Cl)c(Cl)c1-2`
0

Name the recorded Change in cAMP Content from Control (Mean ± SEM) of the compound listed here: Cc1sc(N)c(C(=O)c2cccc(C(F)(F)F)c2)c1C [PD 81,72, reference compound]
4

Return the recorded Change in cAMP Content from Control (Mean ± SEM) value; entry: Nc1sc2c3c1C(=O)c1ccc(Cl)cc1C3CN(Cc1ccccc1)C2 (centres unmarked)
−4

Give Change in cAMP Content from Control (Mean ± SEM) for `Nc1scc2c1C(=O)c1cc(Br)ccc1-2`
−5

Given `CC(=O)Nc1scc2c1C(=O)c1ccc(Cl)cc1-2` , respond with its Change in cAMP Content from Control (Mean ± SEM).
−7

Provide Change in cAMP Content from Control (Mean ± SEM) value for the following compound: `Nc1scc2c1C(=O)c1c(Cl)cccc1C21SCCCS1`
6

Give reported Change in cAMP Content from Control (Mean ± SEM) value for Nc1scc2c1C(O)c1ccc(Cl)cc1-2 (centres unmarked)
4
